# EXPERIMENTAL_SYSTEM: EPHB2 (UniProt P29323)
# Sequence (P29323 whole entry, looked up): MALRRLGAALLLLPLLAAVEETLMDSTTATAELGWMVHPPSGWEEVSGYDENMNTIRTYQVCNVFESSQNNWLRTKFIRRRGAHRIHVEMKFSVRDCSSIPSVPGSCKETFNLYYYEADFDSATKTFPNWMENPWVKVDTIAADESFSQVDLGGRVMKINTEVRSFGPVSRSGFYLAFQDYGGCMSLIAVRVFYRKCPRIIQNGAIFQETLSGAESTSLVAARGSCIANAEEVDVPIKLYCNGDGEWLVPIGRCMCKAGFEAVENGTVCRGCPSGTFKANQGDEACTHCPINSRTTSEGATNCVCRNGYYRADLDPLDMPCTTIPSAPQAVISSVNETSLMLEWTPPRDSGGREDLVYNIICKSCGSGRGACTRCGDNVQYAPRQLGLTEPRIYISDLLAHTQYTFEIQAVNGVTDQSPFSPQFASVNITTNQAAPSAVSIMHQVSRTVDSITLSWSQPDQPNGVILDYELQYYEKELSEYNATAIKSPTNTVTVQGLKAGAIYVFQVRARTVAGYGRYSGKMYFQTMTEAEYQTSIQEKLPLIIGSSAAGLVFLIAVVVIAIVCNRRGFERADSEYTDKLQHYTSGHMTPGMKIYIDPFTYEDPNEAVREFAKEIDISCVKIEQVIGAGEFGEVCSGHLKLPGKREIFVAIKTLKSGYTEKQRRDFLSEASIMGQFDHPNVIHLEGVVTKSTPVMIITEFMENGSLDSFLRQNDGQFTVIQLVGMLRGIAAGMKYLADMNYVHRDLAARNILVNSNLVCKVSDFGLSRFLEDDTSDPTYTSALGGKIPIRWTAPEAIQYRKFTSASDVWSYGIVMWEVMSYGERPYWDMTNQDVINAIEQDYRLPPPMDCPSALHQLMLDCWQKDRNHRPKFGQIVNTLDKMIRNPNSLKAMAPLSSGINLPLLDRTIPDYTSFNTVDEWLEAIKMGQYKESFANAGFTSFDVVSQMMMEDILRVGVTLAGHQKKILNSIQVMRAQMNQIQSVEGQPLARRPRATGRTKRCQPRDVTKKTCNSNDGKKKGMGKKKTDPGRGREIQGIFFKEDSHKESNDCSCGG
# ASSAY_PROTOCOL: phosphorylation enrichment, bacterial display (enrichment ratio); higher = better substrate or ligand; peptides without Tyr show the background;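 note: 11-residue human phosphosite peptides and single-mutation variants displayed on the E. coli surface, counted by deep sequencing, each peptide's frequency after selection divided by its frequency in the unselected input library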;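 note: frequency after pTyr selection over input frequency; kinase dosed for 20-30% of maximal phosphorylation in three min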
Below, each entry is listed with its recorded phosphorylation enrichment.

| SEQUENCE_ENTRY | phosphorylation enrichment |
| --- | --- |
| SVQVDYMKTIL [GLYATL2_Y127] | 0.611 |
| LARNMYDKEFF [MET_Y1230_D1228N_YF] | 0.592 |
| IHFAIYLLKYS [ARMC9_Y107] | 0.59 |

* * *

# Test system: c-Src
# ASSAY_PROTOCOL: phosphorylation enrichment, bacterial display (enrichment ratio); higher = better substrate or ligand; peptides without Tyr show the background
Categorized via phosphorylation enrichment: low (below 0.5), middle (0.5 to below 0.7), high (0.7 or more)

| SEQUENCE_ENTRY | CATEGORY |
| --- | --- |
| QSMEPYTKQQL [STAT3_Y640_V637M] | low |
| IRFSDYVEVAD [PHACTR1_Y525] | low |
| TKDTIYKQPMF [GBA_Y451_F450I] | middle |
| KRGIDYILWHM [FRMD1_Y225_R228W] | low |
| PDMHSYMVRFN [GRIN2D_Y732_YF] | high |
| ENEGTYVCIAA [ADAMTSL3_Y1365_T1370A] | high |
| VISNAYVDLSP [HSD17B4_Y602_A606S] | middle |
| KLSFSYGWALQ [ALDOB_Y302_R304W] | middle |
| IITDYYVDMKF [MPP4_Y567_V562I] | high |
| FRPHLYGTPSR [ADGRE2_Y670_S665F] | middle |
| ITLPIYTKESE [ANK2_Y1455] | high |
| ISIFYYAKGQP [MPZ_Y82_H81Y] | middle |
| ILTYKYLQKPM [KIT_Y547] | middle |
| DFPIGYPSFLA [TBCK_Y153_YF] | middle |
| ESKKHYGFSLF [ANXA3_Y295_F291S_YF] | low |
| EREYKYGAHNY [OAT_Y50] | low |
| AVVEPYNSLLT [TUBA1A_Y185_I188L] | low |
| RKLVDYDSAQH [BIN1_Y150_R154Q] | middle |
| NTGDYCDLYGG [PTPN11_Y63_Y63C] | high |
| HGVSSYDTVIS [LDLR_Y465] | low |
| TEQMAYCPIQC [SHC4_Y403] | high |
| EFQKKYSDADI [CKAP5_Y1860_K1857Q_YF] | low |
| GDAMLYFPSVS [GPR143_Y177_A173D_YF] | high |
| WDLPEYSFKDP [ITGA3_Y237_S235P_YF] | high |
| CLAKMYFSAVE [CP_Y539_D544E_YF] | high |
| KPGLIYNKVNP [SPRED3_Y72_V71I] | high |
| NETNKYQISVN [FGB_Y368_A365T] | low |
| AGTIPYHAHLD [ASS1_Y291_L290P] | low |
| LGSVVYAHSKE [KCNQ2_Y226] | low |
| ENGPFYTSFPP [GDAP2_Y488_YF] | high |
| PTTMTYFPHFD [HBA1_Y43_K41M] | high |
| VECQVYAEDPY [PCCA_Y401_R399Q] | high |
| EKRDAYVSRLN [GSR_Y150] | low |
| QSSEGYGLGDR [KIAA1210_Y564] | high |
| LTPVKYLLSAT [GSDMC_Y26] | low |
| DGTGRYLCNAC [GATA5_Y208_H207R] | low |
| LHQSTYQRFDV [SLC7A14_Y693_YF] | high |
